Numbers sourced from ChEMBL document CHEMBL2203245.

- assay_system: Delta-type opioid receptor (Homo sapiens, UniProt P41143)
- Sequence (P41143 whole entry): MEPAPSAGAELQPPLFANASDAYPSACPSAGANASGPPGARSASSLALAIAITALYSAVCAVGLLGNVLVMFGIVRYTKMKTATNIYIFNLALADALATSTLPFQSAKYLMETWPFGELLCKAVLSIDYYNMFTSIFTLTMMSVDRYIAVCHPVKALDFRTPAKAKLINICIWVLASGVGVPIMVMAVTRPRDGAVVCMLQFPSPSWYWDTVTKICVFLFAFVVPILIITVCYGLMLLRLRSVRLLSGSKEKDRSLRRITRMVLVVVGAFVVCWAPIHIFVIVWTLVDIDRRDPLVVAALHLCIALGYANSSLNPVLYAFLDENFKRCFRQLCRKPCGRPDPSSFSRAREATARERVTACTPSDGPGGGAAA
- assay_text: Displacement of [3H]Naltrindole from human delta opioid receptor expressed in CHO cells after 3 hrs by scintillation counting
measured_quantity: pKi
One number for each entry, as −log10 of the molar value.

>  <molecule>
COc1ccc(-c2ccc(CCNC(=O)c3ccc4c(c3)C3(C)CCN(CC5CC5)C(C4)C3C)cc2)cc1 (racemic)

>  <assay_system>
Delta-type opioid receptor (Homo sapiens, UniProt P41143)

>  <pKi>
9.74

$$$$
>  <molecule>
CC1C2Cc3ccc(C(=O)NCCc4ccc(-c5ccc(OC(F)(F)F)cc5)cc4)cc3C1(C)CCN2CC1CC1 (racemic)

>  <assay_system>
Delta-type opioid receptor (Homo sapiens, UniProt P41143)

>  <pKi>
8.18

$$$$
>  <molecule>
CC1C2Cc3ccc(C(=O)NCCc4ccc(-c5ccc(OC(F)F)cc5)cc4)cc3C1(C)CCN2CC1CC1 (racemic)

>  <assay_system>
Delta-type opioid receptor (Homo sapiens, UniProt P41143)

>  <pKi>
9.10

$$$$

Now consider the entry below.
What measured pKi goes with COc1ccc2cc(CCNC(=O)c3ccc4c(c3)C3(C)CCN(CC5CC5)C(C4)C3C)ccc2c1 (racemic) ? 8.66
